system: H9 cells; assay: qHTS for survival of dissociated H9 cells (CellTiter-Glo, 24 hours after seeding); assay type: cell-based, human; conditions: Homo sapiens, H9, 24 h, H9 cell survival, normalized to 10 μM Y-27632; read-out: Efficacy (activity range between predicted activities at zero and infinite doses, Hill equation)
Where a name gives a salt, the structure may show the parent alone.
Binary call on Emax: class 1 from 70% upward, class 0 beneath that.

molecule | assignedCategory
O=S(=O)(c1cccc2cnccc12)N1CCCNCC1 [Fasudil hydrochloride] | class 1
CN1CCN(Cc2ccc(-c3cnc4[nH]cc(-c5ccc6[nH]ccc6c5)c4c3)cc2)CC1 | class 0
COc1cccc(CNC(=O)Nc2nc(-c3ccncc3)cs2)c1 | class 1
Cc1cnc(Nc2ccc(OCCN3CCCC3)cc2)nc1Nc1cccc(S(=O)(=O)NC(C)(C)C)c1 | class 0
CCCCOc1c(C(=O)c2c(F)cc(C)cc2F)c[nH]c2nncc1-2 | class 0
C[C@@H](N)c1ccc(C(=O)Nc2ccnc3[nH]ccc23)cc1 | class 1
C[C@@H](N)[C@H]1CC[C@H](C(=O)Nc2ccncc2)CC1 | class 1
CCS(=O)(=O)N1CCN(c2ccc(Nc3ncc(C(N)=O)c(NC4CC4)n3)cc2)CC1 | class 0
CC1=NN(c2ccccc2)C(=O)C1 | class 0
Cn1c2ccccc2c2c3c(c4c5ccccc5n(CCC#N)c4c21)CNC3=O | class 0
C[C@H]1[C@H](C)CC[C@]2(C(=O)O)CC[C@]3(C)C(=CC[C@@H]4[C@@]5(C)CC[C@H](O)C(C)(C)[C@@H]5CC[C@]43C)[C@H]12 | class 0

###

tested on: H9 cells; experiment: qHTS for survival of dissociated H9 cells (CellTiter-Glo, 24 hours after seeding); type: cell-based, human; details: Homo sapiens, H9, 24 h, H9 cell survival normalized to 10 μM Y-27632 (taken to be 100%); read-out: Max (maximum activity value from all tested concentrations)
Where a name gives a salt, the structure may show the parent alone.
API: label(entry) gives MET if the entry's Emax is strictly smaller than 40%; on equality or larger values it gives NOT MET.

compound | assignedCategory
CN1CCN(c2nc(C3=C(c4c[nH]c5ccccc45)C(=O)NC3=O)c3ccccc3n2)CC1 | MET
Cn1c2ccccc2c2c3c(c4c5ccccc5n(CCC#N)c4c21)CNC3=O | NOT MET
Nc1nc2nc[nH]c2c(=S)[nH]1 | MET
COc1cccc(CNC(=O)Nc2nc(-c3ccncc3)cs2)c1 | NOT MET
O=C(O)Cc1cc(I)c(Oc2cc(I)c(O)c(I)c2)c(I)c1 | MET
CCCCOc1c(C(=O)c2c(F)cc(C)cc2F)c[nH]c2nncc1-2 | NOT MET
CC(C)(C)c1nc(-c2cccc(NS(=O)(=O)c3c(F)cccc3F)c2F)c(-c2ccnc(N)n2)s1 | MET
c1ccc2c3c([nH]c2c1)CNCC3 | MET
CCS(=O)(=O)N1CC(CC#N)(n2cc(-c3ncnc4[nH]ccc34)cn2)C1 | NOT MET
CC1(C)CC[C@]2(C(=O)O)CC[C@]3(C)C(=CC[C@@H]4[C@@]5(C)CC[C@H](O)C(C)(C)[C@@H]5CC[C@]43C)[C@@H]2C1 | MET
C[C@@H](N)c1ccc(C(=O)Nc2ccnc3[nH]ccc23)cc1 | NOT MET
CNS(=O)(=O)C[C@H]1CC[C@H](N(C)c2ncnc3[nH]ccc23)CC1 | NOT MET
CNCCC(Oc1ccc(C(F)(F)F)cc1)c1ccccc1 (stereo not drawn) [Fluoxetine hydrochloride] | NOT MET
Cc1cncc2cccc(S(=O)(=O)N3CCCN(C(=O)CN)C[C@@H]3C)c12 | NOT MET
COCC(=O)NC/C=C/c1ccc2ncnc(Nc3ccc(Oc4ccc(C)nc4)c(C)c3)c2c1 | MET
CN(C)CCOc1cc(-c2cn[nH]c2)ccc1NC(=O)C1COc2ccccc2O1 (stereo not drawn) | NOT MET
C[C@H]1[C@H](C)CC[C@]2(C(=O)O)CC[C@]3(C)C(=CC[C@@H]4[C@@]5(C)CC[C@H](O)C(C)(C)[C@@H]5CC[C@]43C)[C@H]12 | MET
CN1CCN(Cc2ccc(-c3cnc4[nH]cc(-c5ccc6[nH]ccc6c5)c4c3)cc2)CC1 | MET
COCCOc1ccc2c(c1)ncn2-c1ccc2cccc(N3CCC(N)CC3)c2n1 | MET
NC[C@@](O)(c1ccc(Cl)cc1)c1ccc(-c2cn[nH]c2)cc1 | NOT MET
O=S(=O)(c1cccc2cnccc12)N1CCCNCC1 [Fasudil hydrochloride] | NOT MET
COc1ccc2c(c1)C[C@H](C(=O)Nc1ccc(-c3cn[nH]c3)cc1OCCN(C)C)CO2 | NOT MET
CC[C@@](C)(Nc1ccnc(-c2c[nH]c3ncccc23)n1)C(=O)NCC(F)(F)F | MET
Cc1cnc(Nc2ccc(OCCN3CCCC3)cc2)nc1Nc1cccc(S(=O)(=O)NC(C)(C)C)c1 | NOT MET
CC1=NN(c2ccccc2)C(=O)C1 | MET
C[C@@H](N)[C@H]1CC[C@H](C(=O)Nc2ccncc2)CC1 | NOT MET
